- Tested on: HT29 colon
- Assay Overview: NCI-60 one-dose screen, 48 h
- Measurement Setup: 10 µM unless noted
Compounds without any hit were thinned out: in the full panel of roughly 83,000, 20% have a hit. Calls of active or inactive are those of the source. The calls were made as follows: active = growth percent below 10; inactive = the rest.
Respond using exactly one of the listed classes: YES for active, NO for inactive

Previously resolved entries follow.
1) Cc1c(O)c(CN(CCCl)CCCl)cc(CN(CCCl)CCCl)c1O    NO
2) COc1ccc2c(c1)c(-c1nc(-c3cn(C)c4ncccc34)cs1)cn2CCCCN1CCCCC1    YES
3) N#C[Se]Cc1cc(-c2ccccc2)n(-c2ccc(S(N)(=O)=O)cc2)n1    YES

Task: Could you check what this test reported for C[C@]12CC[C@H]3[C@@H](CC4SC(N)=NC45C/C(=N/NC(N)=O)CC[C@]35C)[C@@H]1CCC2=O (stereo not given in full) ?
Output: NO

Task: Could you check what this test reported for `Clc1cccc(NCOOC2(OOCNc3cccc(Cl)c3)CCCCC2)c1` ?
Output: NO

Task: Could you check what this test reported for `CN1C(=O)C(=Cc2cn(Cc3ccccc3)c3ccccc23)C(=O)N(C)C1=O` ?
Output: NO

Task: Could you check what this test reported for `COc1ccc(N(CC(=O)NCCC[Te]c2ccccc2)C(=O)CNC(=O)OC(C)(C)C)cc1` ?
Output: YES

Task: Could you check what this test reported for `O=C(NCCN1CC1)C(=O)NCCN1CC1` ?
Output: NO

Task: Could you check what this test reported for O=C1CNC(c2ccccc2)c2cc(Cl)ccc2N1 (stereo not given) ?
Output: NO

Task: Could you check what this test reported for `Cc1cc(NC(=O)NCc2ccc(N3C(N)=NC(N)=NC3(C)C)cc2)ccc1S(=O)(=O)F` ?
Output: NO
